Details: in n-propanol, 313.35 K
measured_parameter: solubility (mole fraction)

// solubility (mole fraction) value for NS(=O)(=O)c1ccccc1 : 0.0293

* * *

Details: in isobutanol, 293.75 K
measured_parameter: solubility (mole fraction)

// solubility (mole fraction) value for NS(=O)(=O)c1ccccc1 : 0.00808

* * *

Conditions: in ethyl formate, 313.15 K
measured_parameter: solubility (mole fraction)

// solubility (mole fraction) value for NS(=O)(=O)c1ccccc1 : 0.047

* * *

Conditions: in ethyl acetate, 293.25 K
measured_parameter: solubility (mole fraction)
In your answer, state the number alone without any accompanying words.

// solubility (mole fraction) value for NS(=O)(=O)c1ccccc1 : 0.0467

* * *

Details: in isopropanol, 273.15 K
measured_parameter: solubility (mole fraction)
In your answer, state the number alone without any accompanying words.

// solubility (mole fraction) value for NS(=O)(=O)c1ccccc1 : 0.0076

* * *

Settings: in isopropanol, 299.15 K
measured_parameter: solubility (mole fraction)
In your answer, state the number alone without any accompanying words.

// solubility (mole fraction) value for NS(=O)(=O)c1ccccc1 : 0.0172

* * *

Settings: in ethyl acetate, 317.65 K
measured_parameter: solubility (mole fraction)
In your answer, state the number alone without any accompanying words.

// solubility (mole fraction) value for NS(=O)(=O)c1ccccc1 : 0.0736

* * *

Details: in acetone, 308.15 K
measured_parameter: solubility (mole fraction)

// solubility (mole fraction) value for NS(=O)(=O)c1ccccc1 : 0.176

* * *

Details: in isopropanol, 303.75 K
measured_parameter: solubility (mole fraction)
In your answer, state the number alone without any accompanying words.

// solubility (mole fraction) value for NS(=O)(=O)c1ccccc1 : 0.0213

* * *

Conditions: in n-pentanol, 273.15 K
measured_parameter: solubility (mole fraction)

// solubility (mole fraction) value for NS(=O)(=O)c1ccccc1 : 0.00474

* * *

Settings: in dichloromethane, 293.25 K
measured_parameter: solubility (mole fraction)
In your answer, state the number alone without any accompanying words.

// solubility (mole fraction) value for NS(=O)(=O)c1ccccc1 : 0.00335

* * *

Conditions: in isopropanol, 319.15 K
measured_parameter: solubility (mole fraction)
In your answer, state the number alone without any accompanying words.

// solubility (mole fraction) value for NS(=O)(=O)c1ccccc1 : 0.0371

* * *

Settings: in methyl acetate, 283.45 K
measured_parameter: solubility (mole fraction)
In your answer, state the number alone without any accompanying words.

// solubility (mole fraction) value for NS(=O)(=O)c1ccccc1 : 0.0503

* * *

Conditions: in isopentanol, 309.15 K
measured_parameter: solubility (mole fraction)
In your answer, state the number alone without any accompanying words.

// solubility (mole fraction) value for NS(=O)(=O)c1ccccc1 : 0.0148

* * *

Settings: in n-propanol, 289.15 K
measured_parameter: solubility (mole fraction)
In your answer, state the number alone without any accompanying words.

// solubility (mole fraction) value for NS(=O)(=O)c1ccccc1 : 0.0122

* * *

Details: in acetone, 317.65 K
measured_parameter: solubility (mole fraction)
In your answer, state the number alone without any accompanying words.

// solubility (mole fraction) value for NS(=O)(=O)c1ccccc1 : 0.201

* * *

Details: in dichloromethane, 298.85 K
measured_parameter: solubility (mole fraction)
In your answer, state the number alone without any accompanying words.

// solubility (mole fraction) value for NS(=O)(=O)c1ccccc1 : 0.00424

* * *

Conditions: in n-pentanol, 289.15 K
measured_parameter: solubility (mole fraction)
In your answer, state the number alone without any accompanying words.

// solubility (mole fraction) value for NS(=O)(=O)c1ccccc1 : 0.00727

* * *

Settings: in ethyl acetate, 288.95 K
measured_parameter: solubility (mole fraction)
In your answer, state the number alone without any accompanying words.

// solubility (mole fraction) value for NS(=O)(=O)c1ccccc1 : 0.0429

* * *

Settings: in ethyl acetate, 308.15 K
measured_parameter: solubility (mole fraction)
In your answer, state the number alone without any accompanying words.

// solubility (mole fraction) value for NS(=O)(=O)c1ccccc1 : 0.0615

* * *

Conditions: in ethanol, 308.15 K
measured_parameter: solubility (mole fraction)
In your answer, state the number alone without any accompanying words.

// solubility (mole fraction) value for NS(=O)(=O)c1ccccc1 : 0.041

* * *

Conditions: in isopropanol, 283.85 K
measured_parameter: solubility (mole fraction)
In your answer, state the number alone without any accompanying words.

// solubility (mole fraction) value for NS(=O)(=O)c1ccccc1 : 0.00964

* * *

Settings: in cyclohexanone, 289.15 K
measured_parameter: solubility (mole fraction)

// solubility (mole fraction) value for NS(=O)(=O)c1ccccc1 : 0.134

* * *

Details: in isobutanol, 303.75 K
measured_parameter: solubility (mole fraction)

// solubility (mole fraction) value for NS(=O)(=O)c1ccccc1 : 0.012

* * *

Details: in acetone, 293.25 K
measured_parameter: solubility (mole fraction)
In your answer, state the number alone without any accompanying words.

// solubility (mole fraction) value for NS(=O)(=O)c1ccccc1 : 0.145

* * *

Settings: in methanol, 313.15 K
measured_parameter: solubility (mole fraction)
In your answer, state the number alone without any accompanying words.

// solubility (mole fraction) value for NS(=O)(=O)c1ccccc1 : 0.0808

* * *

Conditions: in dichloromethane, 303.15 K
measured_parameter: solubility (mole fraction)

// solubility (mole fraction) value for NS(=O)(=O)c1ccccc1 : 0.00495

* * *

Conditions: in methanol, 303.15 K
measured_parameter: solubility (mole fraction)
In your answer, state the number alone without any accompanying words.

// solubility (mole fraction) value for NS(=O)(=O)c1ccccc1 : 0.061

* * *

Conditions: in ethanol, 288.95 K
measured_parameter: solubility (mole fraction)
In your answer, state the number alone without any accompanying words.

// solubility (mole fraction) value for NS(=O)(=O)c1ccccc1 : 0.0231

* * *

Conditions: in n-butanol, 283.85 K
measured_parameter: solubility (mole fraction)

// solubility (mole fraction) value for NS(=O)(=O)c1ccccc1 : 0.00798

* * *

Conditions: in ethyl acetate, 279.15 K
measured_parameter: solubility (mole fraction)
In your answer, state the number alone without any accompanying words.

// solubility (mole fraction) value for NS(=O)(=O)c1ccccc1 : 0.036

* * *

Details: in cyclohexanone, 293.75 K
measured_parameter: solubility (mole fraction)
In your answer, state the number alone without any accompanying words.

// solubility (mole fraction) value for NS(=O)(=O)c1ccccc1 : 0.142

* * *

Conditions: in n-pentanol, 303.75 K
measured_parameter: solubility (mole fraction)
In your answer, state the number alone without any accompanying words.

// solubility (mole fraction) value for NS(=O)(=O)c1ccccc1 : 0.0131

* * *

Conditions: in isopentanol, 293.75 K
measured_parameter: solubility (mole fraction)
In your answer, state the number alone without any accompanying words.

// solubility (mole fraction) value for NS(=O)(=O)c1ccccc1 : 0.00804

* * *

Conditions: in n-propanol, 309.15 K
measured_parameter: solubility (mole fraction)
In your answer, state the number alone without any accompanying words.

// solubility (mole fraction) value for NS(=O)(=O)c1ccccc1 : 0.0254

* * *

Details: in acetonitrile, 308.15 K
measured_parameter: solubility (mole fraction)
In your answer, state the number alone without any accompanying words.

// solubility (mole fraction) value for NS(=O)(=O)c1ccccc1 : 0.0817

* * *

Conditions: in dichloromethane, 283.45 K
measured_parameter: solubility (mole fraction)
In your answer, state the number alone without any accompanying words.

// solubility (mole fraction) value for NS(=O)(=O)c1ccccc1 : 0.00214

* * *

Details: in acetone, 323.15 K
measured_parameter: solubility (mole fraction)
In your answer, state the number alone without any accompanying words.

// solubility (mole fraction) value for NS(=O)(=O)c1ccccc1 : 0.217

* * *

Conditions: in n-pentanol, 293.75 K
measured_parameter: solubility (mole fraction)
In your answer, state the number alone without any accompanying words.

// solubility (mole fraction) value for NS(=O)(=O)c1ccccc1 : 0.00894

* * *

Conditions: in methanol, 279.15 K
measured_parameter: solubility (mole fraction)
In your answer, state the number alone without any accompanying words.

// solubility (mole fraction) value for NS(=O)(=O)c1ccccc1 : 0.0325

* * *

Conditions: in acetonitrile, 283.45 K
measured_parameter: solubility (mole fraction)

// solubility (mole fraction) value for NS(=O)(=O)c1ccccc1 : 0.0446

* * *

Details: in isobutanol, 279.15 K
measured_parameter: solubility (mole fraction)
In your answer, state the number alone without any accompanying words.

// solubility (mole fraction) value for NS(=O)(=O)c1ccccc1 : 0.0045

* * *

Details: in acetone, 298.85 K
measured_parameter: solubility (mole fraction)
In your answer, state the number alone without any accompanying words.

// solubility (mole fraction) value for NS(=O)(=O)c1ccccc1 : 0.156

* * *

Details: in dichloromethane, 288.95 K
measured_parameter: solubility (mole fraction)
In your answer, state the number alone without any accompanying words.

// solubility (mole fraction) value for NS(=O)(=O)c1ccccc1 : 0.00278

* * *

Settings: in dichloromethane, 312.15 K
measured_parameter: solubility (mole fraction)
In your answer, state the number alone without any accompanying words.

// solubility (mole fraction) value for NS(=O)(=O)c1ccccc1 : 0.00691

* * *

Conditions: in n-pentanol, 324.45 K
measured_parameter: solubility (mole fraction)

// solubility (mole fraction) value for NS(=O)(=O)c1ccccc1 : 0.0278

All values here come from BigSolDB 2.1.
